Data origin, for the record: patent US20140309265A1

Kindly state IC50 for each of the entries shown.
target: N-His-Tb-BIR3(241-356, XIAP) (Homo sapiens, UniProt P98170); experiment: XIAP-BIR3 SMAC Peptide Fluorescence Polarization Assay (FPA); type: binding
Sequence (P98170 241-356): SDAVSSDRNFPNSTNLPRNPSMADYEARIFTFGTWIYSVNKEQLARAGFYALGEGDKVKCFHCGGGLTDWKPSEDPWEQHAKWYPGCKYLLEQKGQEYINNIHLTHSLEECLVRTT

Use the examples below as a reference point.
structure_notation=CN[C@@H](C)C(=O)N[C@H](C(=O)N1C[C@@H]2C[C@H]1C(=O)N[C@@H](CCc1ccccc1)C(=O)N[C@H](C(=O)O)Cc1ccc(cc1)OCc1cn(nn1)[C@H]1C[C@@H](C(=O)N[C@@H](CCc3ccccc3)C(=O)N[C@H](C(=O)O)Cc3ccc(cc3)OCc3cn2nn3)N(C(=O)[C@@H](NC(=O)[C@H](C)NC)C(C)C)C1)C(C)C measurement_name=IC50 observed="> 100 nM"
structure_notation=CCN(CC)C(=O)[C@@H]1Cc2ccc(cc2)OCc2cn(nn2)[C@H]2C[C@@H](C(=O)N[C@@H](Cc3ccccc3)C(=O)N[C@H](C(=O)N(CC)CC)Cc3ccc(cc3)OCc3cn(nn3)[C@H]3C[C@@H](C(=O)N[C@@H](Cc4ccccc4)C(=O)N1)N(C(=O)[C@@H](NC(=O)[C@H](C)NC)C(C)C)C3)N(C(=O)[C@@H](NC(=O)[C@H](C)NC)C(C)C)C2 measurement_name=IC50 observed="50 to 100 nM"

Now turn to the next compound.
Prompt: Recall the reported IC50 of "CN[C@@H](C)C(=O)N[C@@H](CC(C)C)C(=O)N1C[C@@H]2C[C@H]1C(=O)N[C@@H](Cc1ccccc1)C(=O)N[C@H](C(=O)O)Cc1ccc(cc1)OCc1cn(nn1)[C@H]1C[C@@H](C(=O)N[C@@H](Cc3ccccc3)C(=O)N[C@H](C(=O)O)Cc3ccc(cc3)OCc3cn2nn3)N(C(=O)[C@H](CC(C)C)NC(=O)[C@H](C)NC)C1" on N-His-Tb-BIR3(241-356, XIAP) (Homo sapiens, UniProt P98170) and write it down.
Response: < 50 nM
